# Tested on: MOLT-4 leukemia
# Assay Remarks: NCI tumour cell line growth inhibition, 48 h; in the data active = GI50 below about 0.43 µM; inactive = the rest
I would appreciate it if you answered using one of these outcomes: active, inactive

Observe how each entry below is paired with its result.
{"Compound": "CCOC(=O)C1=C(C)N2C(=NC3=C(CCC/C3=C\\c3ccc(Cl)cc3)C2c2ccc(Cl)cc2)S1 (configuration not stated)", "Qualitative Label": "inactive"}
{"Compound": "C=C1CC[C@@H]2[C@](C)(COC(C)=O)[C@H](OC(C)=O)CC[C@@]2(C)[C@@H]1CC(Nc1ccc(S(=O)(=O)Nc2nccs2)cc1)C1=CCOC1=O (some centres not stated)", "Qualitative Label": "inactive"}
{"Compound": "CCN(C(=O)CN1CCN(c2cc3c(cc2F)c(=O)c(C(=O)O)cn3CC)CC1)c1nc(-c2ccccc2)cs1", "Qualitative Label": "active"}
{"Compound": "OCc1ccc(N2CCCC2)cc1Cl", "Qualitative Label": "inactive"}
{"Compound": "NC(=O)c1cccc(-c2cc(C(N)=O)ccc2Cl)c1", "Qualitative Label": "inactive"}

Query: recorded result category for `COc1ccc(Oc2ccccc2NC(=O)CNC(=O)c2cccc3ccccc23)cc1` in this test inactive

Query: recorded result category for `Brc1cccc(-c2cc(-c3ccc4nccnc4c3)[nH]n2)c1` in this test inactive

* * *

# Test system: SR leukemia
# Assay Remarks: NCI tumour cell line growth inhibition, 48 h
Endpoint: TGI (µM)
Give bare numbers, in µM.

{"Molecule": "Nc1ncccc1-c1nc2ccc(-c3ccccc3)nc2n1-c1ccc(C2(N)CCC2)cc1", "TGI (µM)": 4.75}

For each of the molecules below, state TGI.
1. Cc1c(C#N)c2nnn(-c3ccccc3)c(=O)n2c1-c1ccccc1
2. O=C(Nc1cnc(C(F)(F)F)cn1)c1cc(Cl)ccc1O
3. NNc1c2ccccc2nc2ccccc12
4. NC(=O)c1cccc(-c2cc(C(N)=O)ccc2Cl)c1
5. O=C1NC2CCCCC2N=C1/C(C(=O)c1ccccc1)=C(\O)c1ccccc1 (stereo unspecified)
6. O=C1CCC2(O)C3Cc4ccc(Oc5nnnn5-c5ccccc5)c5c4C2(CCN3CC2CC2)C1O5 (stereo unspecified)

1. 19.3
2. 2.19
3. 19.8
4. 18.3
5. 92.3
6. 42.9

* * *

# Test system: LOX IMVI melanoma
# Assay Remarks: NCI tumour cell line growth inhibition, 48 h; in the data active means GI50 below about 0.43 µM; inactive means the rest
I would appreciate it if you answered using one of these outcomes: 1 (active), -1 (inactive)

Observe how each entry below is paired with its result.
{"Molecule": "CCOC(=O)C1=C(C)N2C(=NC3=C(CCC/C3=C\\c3ccc(Cl)cc3)C2c2ccc(Cl)cc2)S1 (stereo not drawn)", "Qualitative Label": -1}
{"Molecule": "COc1ccc(-c2ccc(/C=N/n3c(COc4ccccc4Cl)n[nH]c3=S)o2)c([N+](=O)[O-])c1", "Qualitative Label": -1}
{"Molecule": "Cc1cccc2c(Nc3ccc(NS(C)(=O)=O)cc3)c3ccc([N+](=O)[O-])cc3nc12", "Qualitative Label": 1}
{"Molecule": "C=C1CC[C@@H]2[C@](C)(COC(C)=O)[C@H](OC(C)=O)CC[C@@]2(C)[C@@H]1CC(Nc1ccc(S(=O)(=O)Nc2nccs2)cc1)C1=CCOC1=O (stereo partly drawn)", "Qualitative Label": -1}
{"Molecule": "Nc1n[nH]c(N)c1N=Nc1ccc(O)cc1", "Qualitative Label": -1}

Query: recorded result category for `COc1cc(OC)cc(-c2n/c(=C\c3c(O)[nH]c4ccc(Cl)cc34)cc3c2=Nc2ccccc2-3)c1` in this test -1

Query: recorded result category for `N.N.N.N.N.O=S(=O)([O-])C(F)(F)F.O=S(=O)([O-])C(F)(F)F.[Os+8]` in this test -1

Query: recorded result category for `Cc1oc2c(c1C(=O)N1CC[C@@H](N)C1)C(=O)c1c(c(O)c3ccccc3c1O)C2=O` in this test -1

The measured values listed here are drawn from PubChem BioAssay (NCI).
